Origin of measurements: PubChem BioAssay AID651717

# System: mESC Bmi1-luciferase reporter, firefly/renilla ratio, 24 h
# ASSAY_PROTOCOL: compounds raising Bmi1 reporter signal – mouse embryonic stem cells, luciferase, cherry-pick, esBAF inhibitor project, dose response (AID 651717);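 further: luciferase knocked into Bmi1 locus with EF-1a renilla as cell number control; rising ratio signals esBAF inhibition which derepresses Bmi1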
PARAMETER: AC40

Consider the worked cases shown below.
[[record]]
compound_structure_string = "CN(C)c1ccc(CNc2nc3cc(-c4ccc(F)cc4)sc3c(=O)n2C)cc1"
parameter = "AC40"
value_reported = "2.12 µM"

[[record]]
compound_structure_string = "O=C(NNC(=O)c1cccc2ccccc12)c1ccc2c(c1)OCO2"
parameter = "AC40"
value_reported = "17.8 µM"


Okay, here is my list. What is AC40 for each of these?
1. Nc1cc2c(cc1Cl)-c1ccc(Cl)cc1C2
2. CC(=O)c1ccc(OCc2cc(C(=O)N(C)Cc3ccccn3)no2)cc1
3. Cc1ccc(Cl)c2c(N=Nc3ccccc3)c(O)[nH]c12

Reply:
["11.3 µM", "6.33 µM", "0.93 µM"]
